Source of measurements: ChEMBL document CHEMBL1131062

# subject-of-test: Muscarinic acetylcholine receptor M3 (Rattus norvegicus, UniProt P08483)
# Sequence (P08483 whole entry): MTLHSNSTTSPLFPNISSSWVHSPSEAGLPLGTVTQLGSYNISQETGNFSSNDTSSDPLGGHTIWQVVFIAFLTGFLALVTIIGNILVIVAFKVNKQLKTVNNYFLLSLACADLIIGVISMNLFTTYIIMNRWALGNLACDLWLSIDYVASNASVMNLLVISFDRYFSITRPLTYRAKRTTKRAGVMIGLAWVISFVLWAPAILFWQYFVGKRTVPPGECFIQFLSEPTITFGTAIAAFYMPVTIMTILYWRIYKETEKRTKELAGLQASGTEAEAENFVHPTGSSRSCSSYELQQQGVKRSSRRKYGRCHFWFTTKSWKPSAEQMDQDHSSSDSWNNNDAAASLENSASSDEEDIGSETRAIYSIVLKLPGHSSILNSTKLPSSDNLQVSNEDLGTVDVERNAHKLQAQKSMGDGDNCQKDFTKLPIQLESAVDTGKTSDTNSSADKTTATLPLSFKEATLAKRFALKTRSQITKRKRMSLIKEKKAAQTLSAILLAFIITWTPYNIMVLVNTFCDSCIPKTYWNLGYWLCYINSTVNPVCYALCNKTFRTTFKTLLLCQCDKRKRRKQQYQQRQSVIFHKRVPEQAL
# assay-explanation: Binding affinity to Muscarinic acetylcholine receptor M3 by measuring its ability to displace [3H]N-methylscopolamine binding in rat submandibulary gland
endpoint-label: log10 of Ki (log10 of the value in µM)
Field: value | Transform: log10 | Quantity: Ki | Unit: µM

Result for C#CCCON=C1CC2CCC(C1)N2C , tested on Muscarinic acetylcholine receptor M3 (Rattus norvegicus, UniProt P08483), log10 of Ki: 1.00

log10 of Ki value, target or system Muscarinic acetylcholine receptor M3 (Rattus norvegicus, UniProt P08483), for CCC#CCON=C1CCN(C)CC1 : 1.30

Summary: C#CCCCON=C1CCN(C)CC1 , Muscarinic acetylcholine receptor M3 (Rattus norvegicus, UniProt P08483), log10 of Ki = 1.20

Simply: CN1C2CCC1CC(=NO)C2 , Muscarinic acetylcholine receptor M3 (Rattus norvegicus, UniProt P08483), log10 of Ki = 2.90

Assay Muscarinic acetylcholine receptor M3 (Rattus norvegicus, UniProt P08483), sample C#CCON=C1CCN(C)CC1 , log10 of Ki read: 1.30

Item O=C1CCCN1CC#CCN1CCCC1 was tested on Muscarinic acetylcholine receptor M3 (Rattus norvegicus, UniProt P08483); the reported log10 of Ki is -0.40

Muscarinic acetylcholine receptor M3 (Rattus norvegicus, UniProt P08483) data for C#CCC(C)ON=C1CCN(C)CC1 (configuration not stated) ; its log10 of Ki: 1.70

Bench note, Muscarinic acetylcholine receptor M3 (Rattus norvegicus, UniProt P08483): entry C#CC(C)ON=C1CC2CCC(C1)N2C (configuration not stated) , its log10 of Ki = 0.60

Form field, log10 of Ki with Muscarinic acetylcholine receptor M3 (Rattus norvegicus, UniProt P08483), item C#CCCON=C1CCN(C)CC1 : 1.60

# lookup: C#CC(C)ON=C1CCN(C)CC1 (configuration not stated) on Muscarinic acetylcholine receptor M3 (Rattus norvegicus, UniProt P08483), log10 of Ki = 1.90

Test item CCC#CCON=C1CC2CCC(C1)N2C ; Muscarinic acetylcholine receptor M3 (Rattus norvegicus, UniProt P08483); reported log10 of Ki was 0.50

For C#CC(CC)ON=C1CCN(C)CC1 (configuration not stated) on Muscarinic acetylcholine receptor M3 (Rattus norvegicus, UniProt P08483), measured log10 of Ki was 1.00

Log: Muscarinic acetylcholine receptor M3 (Rattus norvegicus, UniProt P08483), molecule CC#CCON=C1CCN(C)CC1 , log10 of Ki = 2.10

CC#CCON=C1CC2CCC(C1)N2C tested on Muscarinic acetylcholine receptor M3 (Rattus norvegicus, UniProt P08483) gave log10 of Ki: 1.20

CN1CCC(=NO)CC1 tested on Muscarinic acetylcholine receptor M3 (Rattus norvegicus, UniProt P08483) gave log10 of Ki: 3.50

Entry CC#CCCON=C1CC2CCC(C1)N2C ; assay system Muscarinic acetylcholine receptor M3 (Rattus norvegicus, UniProt P08483); log10 of Ki recorded at 0.40

Muscarinic acetylcholine receptor M3 (Rattus norvegicus, UniProt P08483) data for C#CCCCON=C1CC2CCC(C1)N2C ; its log10 of Ki: 1.00

Simply: C#CCC(C)ON=C1CC2CCC(C1)N2C (configuration not stated) , Muscarinic acetylcholine receptor M3 (Rattus norvegicus, UniProt P08483), log10 of Ki = 0.50

I looked up CC#CCCON=C1CCN(C)CC1 and its log10 of Ki for Muscarinic acetylcholine receptor M3 (Rattus norvegicus, UniProt P08483) was 1.60

Entry CON=C1CC2CCC(C1)N2C : log10 of Ki on Muscarinic acetylcholine receptor M3 (Rattus norvegicus, UniProt P08483) = 2.00

Here CON=C1CCN(C)CC1 was tested on Muscarinic acetylcholine receptor M3 (Rattus norvegicus, UniProt P08483), and its log10 of Ki came to 1.40

Muscarinic acetylcholine receptor M3 (Rattus norvegicus, UniProt P08483) data for C#CC(CC)ON=C1CC2CCC(C1)N2C (configuration not stated) ; its log10 of Ki: 0.80
